System: Calf thymus DNA
method: Apparent binding constant calf thymus DNA-drug complex
Assay type: nucleic-acid assay
condition set: Bos taurus
Would you kindly list log10(K app) for each of these molecules?
Heads up, the numbers here are log10 of K app in M⁻¹ units.

Solved entries (count: 5):
1) Cc1c2oc3c(C)c(O)c(N)c(C(=O)N[C@H]4C(=O)N[C@@H](C(C)C)C(=O)N5CCC[C@H]5C(=O)N(C)CC(=O)N(C)[C@H](C(C)C)C(=O)O[C@H]4C)c3nc-2c(C(=O)N[C@@H]2C(=O)N[C@H](C(C)C)C(=O)N3CCC[C@@H]3C(=O)N(C)CC(=O)N(C)[C@@H](C(C)C)C(=O)O[C@@H]2C)c/c1=N/Cc1ccc(Cl)c(Cl)c1 = 7.41
2) Cc1c2oc3c(C)c(O)c(N)c(C(=O)N[C@H]4C(=O)N[C@@H](C(C)C)C(=O)N5CCC[C@H]5C(=O)N(C)CC(=O)N(C)[C@H](C(C)C)C(=O)O[C@H]4C)c3nc-2c(C(=O)N[C@@H]2C(=O)N[C@H](C(C)C)C(=O)N3CCC[C@@H]3C(=O)N(C)CC(=O)N(C)[C@@H](C(C)C)C(=O)O[C@@H]2C)cc1=O = 7.51
3) Cc1c2oc3c(C)c(O)c(N)c(C(=O)N[C@@H]4C(=O)N[C@H](C(C)C)C(=O)N5CCC[C@H]5C(=O)N(C)CC(=O)N(C)[C@@H](C(C)C)C(=O)O[C@H]4C)c3nc-2c(C(=O)N[C@@H]2C(=O)N[C@H](C(C)C)C(=O)N3CCC[C@H]3C(=O)N(C)CC(=O)N(C)[C@@H](C(C)C)C(=O)O[C@H]2C)cc1=N = 7.36
4) Cc1c2oc3c(C)c(OCc4ccc(Cl)cc4)cc(C(=O)N[C@@H]4C(=O)N[C@H](C(C)C)C(=O)N5CCC[C@@H]5C(=O)N(C)CC(=O)N(C)[C@@H](C(C)C)C(=O)O[C@@H]4C)c3nc-2c(C(=O)N[C@H]2C(=O)N[C@@H](C(C)C)C(=O)N3CCC[C@H]3C(=O)N(C)CC(=O)N(C)[C@H](C(C)C)C(=O)O[C@H]2C)c(N)c1=O = 5.00
5) Cc1c2oc3c(C)c(OCc4ccc(Cl)c(Cl)c4)cc(C(=O)N[C@@H]4C(=O)N[C@H](C(C)C)C(=O)N5CCC[C@@H]5C(=O)N(C)CC(=O)N(C)[C@@H](C(C)C)C(=O)O[C@@H]4C)c3nc-2c(C(=O)N[C@H]2C(=O)N[C@@H](C(C)C)C(=O)N3CCC[C@H]3C(=O)N(C)CC(=O)N(C)[C@H](C(C)C)C(=O)O[C@H]2C)c(N)c1=O = 4.00

Reported Calf thymus DNA log10(K app) for item CCCOc1cc(C(=O)N[C@@H]2C(=O)N[C@H](C(C)C)C(=O)N3CCC[C@@H]3C(=O)N(C)CC(=O)N(C)[C@@H](C(C)C)C(=O)O[C@@H]2C)c2nc3c(C(=O)N[C@H]4C(=O)N[C@@H](C(C)C)C(=O)N5CCC[C@H]5C(=O)N(C)CC(=O)N(C)[C@H](C(C)C)C(=O)O[C@H]4C)c(N)c(=O)c(C)c-3oc2c1C was 6.32

----------
Tested on: P388
method: Median survival time of the P388 cells implanted CDF1 male mice in vivo
Type: functional, Mus musculus
*1 amine or outer side, *2 acyl side, *3 side chain or, on linkers, in order; H or OH if unused. Where a SMILES comes first, the peptide text is derived from it. Bridges are numbered along the chain shown (N, C = ends). Roman numbers before positions name the chains, in order. [ ]: non-standard residue; d: D form. Actinocin(9to1) = Cc1c2oc3c(C)ccc(C(=O)[*:1])c3nc-2c(C(=O)[*:2])c(N)c1=O; NMeV = CN[C@H](C(=O)O)C(C)C; Sar = CNCC(=O)O
endpoint label: MST (days)
One number for each entry, in days.

Example entries begin here.
1) CCCCCCCCCCCNc1c(C(=O)N[C@@H]2C(=O)N[C@H](C(C)C)C(=O)N3CCC[C@H]3C(=O)N(C)CC(=O)N(C)[C@@H](C(C)C)C(=O)O[C@@H]2C)c2nc3c(C(=O)N[C@@H]4C(=O)N[C@H](C(C)C)C(=O)N5CCC[C@H]5C(=O)N(C)CC(=O)N(C)[C@@H](C(C)C)C(=O)O[C@@H]4C)ccc(C)c3oc-2c(C)c1=O = 10
2) CCCCCCNc1c(C(=O)N[C@@H]2C(=O)N[C@H](C(C)C)C(=O)N3CCC[C@H]3C(=O)N(C)CC(=O)N(C)[C@@H](C(C)C)C(=O)O[C@@H]2C)c2nc3c(C(=O)N[C@@H]4C(=O)N[C@H](C(C)C)C(=O)N5CCC[C@H]5C(=O)N(C)CC(=O)N(C)[C@@H](C(C)C)C(=O)O[C@@H]4C)ccc(C)c3oc-2c(C)c1=O = 11

Please report MST for every entry that follows.
1. CCCNc1c(C(=O)N[C@@H]2C(=O)N[C@H](C(C)C)C(=O)N3CCC[C@H]3C(=O)N(C)CC(=O)N(C)[C@@H](C(C)C)C(=O)O[C@@H]2C)c2nc3c(C(=O)N[C@@H]4C(=O)N[C@H](C(C)C)C(=O)N5CCC[C@H]5C(=O)N(C)CC(=O)N(C)[C@@H](C(C)C)C(=O)O[C@@H]4C)ccc(C)c3oc-2c(C)c1=O
2. CCCCCCCOc1cc(C(=O)N[C@@H]2C(=O)N[C@H](C(C)C)C(=O)N3CCC[C@H]3C(=O)N(C)CC(=O)N(C)[C@@H](C(C)C)C(=O)O[C@@H]2C)c2nc3c(C(=O)N[C@@H]4C(=O)N[C@H](C(C)C)C(=O)N5CCC[C@H]5C(=O)N(C)CC(=O)N(C)[C@@H](C(C)C)C(=O)O[C@@H]4C)c(N)c(=O)c(C)c-3oc2c1C
3. Cc1c2oc3c(C)ccc(C(=O)N[C@@H]4C(=O)N[C@H](C(C)C)C(=O)N5CCC[C@H]5C(=O)N(C)CC(=O)N(C)[C@@H](C(C)C)C(=O)O[C@@H]4C)c3nc-2c(C(=O)N[C@@H]2C(=O)N[C@H](C(C)C)C(=O)N3CCC[C@H]3C(=O)N(C)CC(=O)N(C)[C@@H](C(C)C)C(=O)O[C@@H]2C)c(N)c1=O [DACTINOMYCIN] (I: T[dV]P[Sar][NMeV] / II: T[dV]P[Sar][NMeV]; ester I:1-I:C, II:1-II:C; linker I:N-II:N via Actinocin(9to1))

1. 17
2. 13
3. 24

Value of MST reported for the compound Cc1c2oc3c(C)ccc(C(=O)N[C@@H]4C(=O)N[C@H](C(C)C)C(=O)N5CCC[C@H]5C(=O)N(C)CC(=O)N(C)[C@@H](C(C)C)C(=O)O[C@@H]4C)c3nc-2c(C(=O)N[C@@H]2C(=O)N[C@H](C(C)C)C(=O)N3CCC[C@H]3C(=O)N(C)CC(=O)N(C)[C@@H](C(C)C)C(=O)O[C@@H]2C)c(NCCCCCN)c1=O is 18
